Overview of reported IC50 across a group of compounds:
Target: Metabotropic glutamate receptor 1 (Homo sapiens)
Sequence (Q13255 whole entry): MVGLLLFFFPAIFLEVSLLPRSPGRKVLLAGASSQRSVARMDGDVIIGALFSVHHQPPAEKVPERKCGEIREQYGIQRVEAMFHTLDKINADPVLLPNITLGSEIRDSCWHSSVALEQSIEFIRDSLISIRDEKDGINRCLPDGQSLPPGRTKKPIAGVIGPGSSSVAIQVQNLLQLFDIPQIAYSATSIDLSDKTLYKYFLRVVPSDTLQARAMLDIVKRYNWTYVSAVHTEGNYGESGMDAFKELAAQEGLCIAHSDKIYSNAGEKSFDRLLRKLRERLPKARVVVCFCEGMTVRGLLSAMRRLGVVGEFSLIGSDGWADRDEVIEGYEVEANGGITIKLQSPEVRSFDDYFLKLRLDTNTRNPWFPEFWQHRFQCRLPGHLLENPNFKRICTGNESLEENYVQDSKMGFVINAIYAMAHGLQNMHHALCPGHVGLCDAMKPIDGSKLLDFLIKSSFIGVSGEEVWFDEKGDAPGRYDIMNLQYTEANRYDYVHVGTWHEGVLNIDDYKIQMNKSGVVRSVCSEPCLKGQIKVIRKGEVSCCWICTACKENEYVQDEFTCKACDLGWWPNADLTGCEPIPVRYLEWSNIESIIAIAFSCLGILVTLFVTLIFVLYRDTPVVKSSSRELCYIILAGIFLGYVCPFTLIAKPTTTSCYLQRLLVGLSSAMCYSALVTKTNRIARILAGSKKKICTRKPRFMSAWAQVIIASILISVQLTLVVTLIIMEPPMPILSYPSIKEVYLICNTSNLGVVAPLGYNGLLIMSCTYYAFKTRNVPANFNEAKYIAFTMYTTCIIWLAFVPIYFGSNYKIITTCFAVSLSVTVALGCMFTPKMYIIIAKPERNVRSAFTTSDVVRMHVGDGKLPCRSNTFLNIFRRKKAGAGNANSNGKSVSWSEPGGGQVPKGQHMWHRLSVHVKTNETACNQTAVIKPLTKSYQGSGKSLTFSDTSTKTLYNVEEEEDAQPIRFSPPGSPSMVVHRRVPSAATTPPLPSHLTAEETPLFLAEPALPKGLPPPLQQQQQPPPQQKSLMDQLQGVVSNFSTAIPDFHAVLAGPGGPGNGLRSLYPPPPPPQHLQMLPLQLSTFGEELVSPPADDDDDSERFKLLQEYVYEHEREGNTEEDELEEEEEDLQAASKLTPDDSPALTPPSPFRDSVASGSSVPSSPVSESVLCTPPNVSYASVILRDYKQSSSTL
Assay: Antagonist activity at human mGluR1 expressed in CHO cells assessed as calcium flux by FLIPR assay

# Structure smiles, Uom, IC50
records = [
    ("CC(C)(C)OC(=O)N1CC=C(c2cn(-c3ccccc3)nn2)CC1", "nM", 9.8),
    ("CC(C)(C)NC(=O)N1CC=C(c2cn(-c3ccccc3F)nn2)CC1", "nM", 57),
    ("CC(C)(C)OC(=O)N1CC=C(c2cn(-c3ccc(F)cc3)nn2)CC1", "nM", 16),
    ("Cc1ccccc1-n1cc(C2=CCN(C(=O)OC(C)(C)C)CC2)nn1", "nM", 11),
    ("CC(C)(C)OC(=O)N1CC=C(c2cn(-c3cccnc3)nn2)CC1", "nM", 55),
    ("CC(C)(C)OC(=O)N1CC=C(c2cn(-c3cccnc3F)nn2)CC1", "nM", 2.6),
    ("Cc1c(C2=CCN(C(=O)OC(C)(C)C)CC2)nnn1-c1cccnc1F", "nM", 7),
    ("CC(C)(C)OC(=O)N1CC=C(c2cn(-c3cccc(F)c3)nn2)CC1", "nM", 18),
    ("CC(C)(C)OC(=O)N1CC=C(c2cn(-c3ccncc3)nn2)CC1", "nM", 220),
]

====

Target: Metabotropic glutamate receptor 5 (Homo sapiens)
Sequence (P41594 whole entry): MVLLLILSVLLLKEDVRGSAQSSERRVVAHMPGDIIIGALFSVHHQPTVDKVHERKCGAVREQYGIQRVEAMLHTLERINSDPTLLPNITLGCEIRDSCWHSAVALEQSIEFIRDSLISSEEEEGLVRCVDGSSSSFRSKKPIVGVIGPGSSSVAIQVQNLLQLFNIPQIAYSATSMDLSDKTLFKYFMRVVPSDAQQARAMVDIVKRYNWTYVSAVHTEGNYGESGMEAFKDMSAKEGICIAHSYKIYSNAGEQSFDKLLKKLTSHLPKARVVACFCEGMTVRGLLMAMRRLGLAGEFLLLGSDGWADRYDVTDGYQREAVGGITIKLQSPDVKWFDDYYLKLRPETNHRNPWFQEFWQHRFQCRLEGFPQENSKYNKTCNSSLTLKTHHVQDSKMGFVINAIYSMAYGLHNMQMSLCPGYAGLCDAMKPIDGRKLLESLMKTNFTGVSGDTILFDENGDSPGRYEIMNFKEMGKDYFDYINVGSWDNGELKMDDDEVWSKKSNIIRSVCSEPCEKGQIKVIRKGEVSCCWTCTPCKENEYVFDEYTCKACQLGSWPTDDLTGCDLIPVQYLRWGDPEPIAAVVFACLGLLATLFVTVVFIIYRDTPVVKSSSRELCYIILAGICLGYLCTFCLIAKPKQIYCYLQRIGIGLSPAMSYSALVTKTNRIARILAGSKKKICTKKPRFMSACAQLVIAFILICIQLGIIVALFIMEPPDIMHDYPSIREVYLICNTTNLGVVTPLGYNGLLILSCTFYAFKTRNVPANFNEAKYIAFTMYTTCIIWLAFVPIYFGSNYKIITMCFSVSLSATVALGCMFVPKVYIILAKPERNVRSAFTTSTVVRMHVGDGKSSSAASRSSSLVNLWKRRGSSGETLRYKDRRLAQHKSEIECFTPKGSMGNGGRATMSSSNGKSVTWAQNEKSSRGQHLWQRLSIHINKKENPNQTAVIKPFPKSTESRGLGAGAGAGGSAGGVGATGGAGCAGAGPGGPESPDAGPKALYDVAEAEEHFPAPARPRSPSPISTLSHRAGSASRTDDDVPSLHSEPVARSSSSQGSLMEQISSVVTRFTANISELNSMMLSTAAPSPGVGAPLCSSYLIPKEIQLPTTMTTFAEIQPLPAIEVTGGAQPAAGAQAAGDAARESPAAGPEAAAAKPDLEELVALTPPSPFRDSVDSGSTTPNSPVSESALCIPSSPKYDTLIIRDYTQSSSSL
Assay: Antagonist activity at human mGluR5 expressed in CHO cells assessed as calcium flux by FLIPR assay
pIC50: −log10 of the molar value.
Parameter: pIC50

# Structure smiles, Assay target, Parameter, Measurement
measured = [
    ("CC(C)(C)OC(=O)N1CC=C(c2cn(-c3ccccc3F)nn2)CC1", "Metabotropic glutamate receptor 5 (Homo sapiens)", "pIC50", 6.00),
    ("Cc1c(C2=CCN(C(=O)N(C)C(C)C)CC2)nnn1-c1cccnc1F", "Metabotropic glutamate receptor 5 (Homo sapiens)", "pIC50", 5.21),
    ("Cc1ccccc1-n1cc(C2=CCN(C(=O)OC(C)(C)C)CC2)nn1", "Metabotropic glutamate receptor 5 (Homo sapiens)", "pIC50", 6.06),
    ("CC(C)(C)OC(=O)N1CC=C(c2cn(-c3cccc(F)c3)nn2)CC1", "Metabotropic glutamate receptor 5 (Homo sapiens)", "pIC50", 5.96),
    ("COc1ccccc1-n1cc(C2=CCN(C(=O)OC(C)(C)C)CC2)nn1", "Metabotropic glutamate receptor 5 (Homo sapiens)", "pIC50", 5.40),
    ("CC(C)(C)NC(=O)N1CC=C(c2cn(-c3ccccc3F)nn2)CC1", "Metabotropic glutamate receptor 5 (Homo sapiens)", "pIC50", 5.07),
    ("CC(C)OC(=O)N1CC=C(c2cn(-c3cccnc3F)nn2)CC1", "Metabotropic glutamate receptor 5 (Homo sapiens)", "pIC50", 5.41),
]
